src = PubChem BioAssay AID1159580

Experiment: chemical genetic growth profiling, strain panel (AID 1159580);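 further: tested at 20 µM; growth read once vehicle control cultures reached saturation at 30 °C; lower values mean less growth of the strain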
Conditions: S. cerevisiae deletion strains, growth OD, locus YDR137W, strain rgp1
In all, about 5,500 compounds went through this assay and about 2,000 (36%) were called active. Roughly 18% stayed inconclusive and do not appear here. No stated cut-off is given here; in the data, active means normalized growth mostly below about 0.91 (no sharp cut-off); inconclusive means no clear call, values can overlap the other calls; inactive means mostly above about 0.92. The list shows a part of the results.
Please answer using one outcome listed in y = active, n = inactive

>>> assignedclass("S=c1ccss1")
"y"
>>> assignedclass("CC1(C)O[C@@H]2CC3C4C[C@H](F)C5=CC(=O)C=CC5(C)C4C(O)CC3(C)[C@]2(C(=O)CO)O1 (some centres not stated)")
"n"

What classification did CC1=NCCc2c1[nH]c1cc(O)ccc21 end up with in this test?
n

One more molecule: COc1cc2c3cc1Oc1cc(ccc1O)C[C@@H]1c4c(cc(OC)c(O)c4Oc4ccc(cc4)C[C@@H]3N(C)CC2)CC[N+]1(C)C
n

One more molecule: CCn1cc(C(=O)O)c(=O)c2cc(F)c(N3CCNCC3)cc21
n

One more molecule: CC(=O)Oc1cc(-c2coc3cc(OC(C)=O)c(OC(C)=O)c(OC(C)=O)c3c2=O)cc(OC(C)=O)c1OC(C)=O
y

One more molecule: O=c1[nH]c2cc(Cl)c(Cl)cc2[nH]c1=O
n

One more molecule: CC(=O)Nc1ccc(O)cc1
n

One more molecule: C=C1C2CC[C@@]3(C)[C@H](c4ccoc4)OC(=O)C[C@]13O[C@H]1CC(=O)C(C)(C)[C@H](C(O)C(=O)OC)[C@@]21C (some centres not stated)
n

One more molecule: CN(C)CCC=C1c2ccccc2C=Cc2ccccc21
y

One more molecule: CC(=O)O[C@H]1C[C@@H](O)C(C)(C)C2C[C@@H](OC(C)=O)[C@]3(C)C(CC[C@@]4(C)[C@H](c5ccoc5)OC(=O)C5OC543)[C@]21C (some centres not stated)
n

One more molecule: NS(=O)(=O)c1cc2c(cc1C(F)(F)F)NCNS2(=O)=O
n

One more molecule: NCCc1ccc(O)cc1
n

One more molecule: O=c1c(-c2ccc(O)cc2)coc2cc(O)cc(O)c12
n

One more molecule: CC(=O)Nc1cccc(O)c1
n
